Test system: up to 32 different microorganisms
Test: in vitro antibacterial activity (MIC), agar dilution on Brain Heart Infusion (BHI) agar with Steers replicator
Type: cell-based
Settings: organism code QQ; unit assumed
valueType: MIC (µg/mL)
Express it in µg/mL; write the number only.

Previously resolved entries follow.
CC[C@H]1OC(=O)[C@H](C)C(=O)[C@H](C)[C@@H](O[C@@H]2O[C@H](C)C[C@H](N(C)C)[C@H]2O)[C@@](C)(OCCNCCCc2cnc3ccccc3c2)C[C@@H](C)C(=O)[C@H](C)[C@H]2NC(=O)O[C@@]21C [Example 225] ... 12.5
CCC1OC(=O)C(C)C(=O)C(C)C(OC2OC(C)CC(N(C)C)C2O)C(C)(OCC=Cc2cnc3ccc(N)cc3c2)CC(C)C(=O)C(C)C2NC(=O)OC12C (centres unmarked) [Example 201, R is —CH2CH═CH-(6-amino-3-quinolyl)] ... 50
CCC1OC(=O)C(C)C(=O)C(C)C(OC2OC(C)CC(N(C)C)C2O)C(C)(OCC=Cc2cnc3ccc(F)cc3c2)CC(C)C(=O)C(C)C2NC(=O)OC12C (centres unmarked) [Example 215, R is —CH2CH═CH-(6-fluoro-3-quinolyl)] ... 25

Identify measured MIC corresponding to CCC1OC(=O)C(C)C(=O)C(C)C(OC2OC(C)CC(N(C)C)C2O)C(C)(OCC=Cc2ccc3cccnc3c2)CC(C)C(=O)C(C)C2NC(=O)OC12C (centres unmarked) [Example 278] 25

Identify measured MIC corresponding to CC[C@H]1OC(=O)[C@H](C)C(=O)[C@H](C)[C@@H](O[C@@H]2O[C@H](C)C[C@H](N(C)C)[C@H]2O)[C@@](C)(OCC=NOCc2ccc3ccccc3n2)C[C@@H](C)C(=O)[C@H](C)[C@H]2NC(=O)O[C@@]21C [Example 232] 25

Identify measured MIC corresponding to CC[C@H]1OC(=O)[C@H](C)C(=O)[C@H](C)[C@@H](O[C@@H]2O[C@H](C)C[C@H](N(C)C)[C@H]2O)[C@@](C)(OCCNCCc2ccccc2)C[C@@H](C)C(=O)[C@H](C)[C@H]2NC(=O)O[C@@]21C [Example 222] 25

Identify measured MIC corresponding to CC[C@H]1OC(=O)[C@H](C)C(=O)[C@H](C)[C@@H](O[C@@H]2O[C@H](C)C[C@H](N(C)C)[C@H]2O)[C@@](C)(OCC=O)C[C@@H](C)C(=O)[C@H](C)[C@H]2NC(=O)O[C@@]21C [Example 220] 12.5

Identify measured MIC corresponding to CCC1OC(=O)C(C)C(=O)C(C)C(OC2OC(C)CC(N(C)C)C2O)C(C)(OCC=Cc2ccc(-c3ccon3)s2)CC(C)C(=O)C(C)C2NC(=O)OC12C (centres unmarked) [Example 292] 50

====

Recorded MIC, one value per entry.
Tested on: up to 32 different microorganisms
Assay: in vitro antibacterial activity (MIC), agar dilution on Brain Heart Infusion (BHI) agar with Steers replicator
Assay type: cell-based
Settings: organism code VV; unit assumed
Express it in µg/mL; write the number only.

CCC1OC(=O)C(C)C(=O)C(C)C(OC2OC(C)CC(N(C)C)C2O)C(C)(OCC=Cc2ccc3nccnc3c2)CC(C)C(=O)C(C)C2NC(=O)OC12C (stereo not shown) [Example 207, R is —CH2CH═CH-(6-quinoxalinyl)] ... 0.02
CCC1OC(=O)C(C)C(=O)C(C)C(OC2OC(C)CC(N(C)C)C2O)C(C)(OCC=Cc2cn(C)c(=O)n(C)c2=O)CC(C)C(=O)C(C)C2NC(=O)OC12C (stereo not shown) [Example 293] ... 0.78
CC[C@H]1OC(=O)[C@H](C)C(=O)[C@H](C)[C@@H](O[C@@H]2O[C@H](C)C[C@H](N(C)C)[C@H]2O)[C@@](C)(OCCNCCCc2cnc3ccccc3c2)C[C@@H](C)C(=O)[C@H](C)[C@H]2NC(=O)O[C@@]21C [Example 225] ... 0.2

Identify measured MIC corresponding to CC[C@H]1OC(=O)[C@H](C)C(=O)[C@H](C)[C@@H](O[C@@H]2O[C@H](C)C[C@H](N(C)C)[C@H]2O)[C@@](C)(OCC#Cc2ccc3ncccc3c2)C[C@@H](C)C(=O)[C@H](C)[C@H]2NC(=O)O[C@@]21C [Example 254] 0.01

Identify measured MIC corresponding to CCC1OC(=O)C(C)C(=O)C(C)C(OC2OC(C)CC(N(C)C)C2O)C(C)(OCC=Cc2cccc(-c3ccccc3)c2)CC(C)C(=O)C(C)C2NC(=O)OC12C (stereo not shown) [Example 280] 6.2

Identify measured MIC corresponding to CCC1OC(=O)C(C)C(=O)C(C)C(OC2OC(C)CC(N(C)C)C2O)C(C)(OCC=Cc2ccc3cccnc3c2)CC(C)C(=O)C(C)C2NC(=O)OC12C (stereo not shown) [Example 278] 0.02

Identify measured MIC corresponding to CCC1OC(=O)C(C)C(=O)C(C)C(OC2OC(C)CC(N(C)C)C2O)C(C)(OCC=Cc2cc(Cl)cc(Cl)c2)CC(C)C(=O)C(C)C2NC(=O)OC12C (stereo not shown) [Example 284] 0.78

Identify measured MIC corresponding to CCC1OC(=O)C(C)C(=O)C(C)C(OC2OC(C)CC(N(C)C)C2O)C(C)(OCc2cccc(I)c2)CC(C)C(=O)C(C)C2NC(=O)OC12C (stereo not shown) [Example 285] 1.56

Identify measured MIC corresponding to CC[C@H]1OC(=O)[C@H](C)C(=O)[C@H](C)[C@@H](O[C@@H]2O[C@H](C)C[C@H](N(C)C)[C@H]2O)[C@@](C)(OCCNCCCCc2ccccc2)C[C@@H](C)C(=O)[C@H](C)[C@H]2NC(=O)O[C@@]21C [Example 224] 0.1

Identify measured MIC corresponding to CC[C@H]1OC(=O)[C@H](C)C(=O)[C@H](C)[C@@H](O[C@@H]2O[C@H](C)C[C@H](N(C)C)[C@H]2O)[C@@](C)(OCC#Cc2ccc3nc(C)ccc3c2)C[C@@H](C)C(=O)[C@H](C)[C@H]2NC(=O)O[C@@]21C [Example 255] 0.05

====

Tested on: up to 32 different microorganisms
Assay: in vitro antibacterial activity (MIC), agar dilution on Brain Heart Infusion (BHI) agar with Steers replicator
Assay type: cell-based
Details: Staphylococcus aureus CMX 642A (code DD); unit assumed
Recorded MIC, one value per entry.
Express it in µg/mL; write the number only.

CC[C@H]1OC(=O)[C@H](C)C(=O)[C@H](C)[C@@H](O[C@@H]2O[C@H](C)C[C@H](N(C)C)[C@H]2O)[C@@](C)(OCC=Cc2ccc(Cl)cc2)C[C@@H](C)C(=O)[C@H](C)[C@H]2OC(=O)O[C@@]21C ... 0.2

Identify measured MIC corresponding to CC[C@H]1OC(=O)[C@H](C)C(=O)[C@H](C)[C@@H](O[C@@H]2O[C@H](C)C[C@H](N(C)C)[C@H]2O)[C@@](C)(OCC(O)C#N)C[C@@H](C)C(=O)[C@H](C)[C@@H](O)[C@]1(C)O (some centres unmarked) 0.78

====

System: up to 32 different microorganisms
Test: in vitro antibacterial activity (MIC), agar dilution on Brain Heart Infusion (BHI) agar with Steers replicator
Type: cell-based
Conditions: Streptococcus pyogenes PIU 2548 (code NN); unit assumed
Recorded MIC, one value per entry.
Express it in µg/mL; write the number only.

CC[C@H]1OC(=O)[C@H](C)C(=O)[C@H](C)[C@@H](O[C@@H]2O[C@H](C)C[C@H](N(C)C)[C@H]2O)[C@@](C)(OCC=Cc2ccc(OC)cc2)C[C@@H](C)C(=O)[C@H](C)[C@@H](O)[C@]1(C)O ... 0.78

Identify measured MIC corresponding to CCC1OC(=O)C(C)C(=O)C(C)C(OC2OC(C)CC(N(C)C)C2O)C(C)(OCC=Cc2cccc3cccnc23)CC(C)C(=O)C(C)C2NC(=O)OC12C (stereo not drawn) 0.2

Identify measured MIC corresponding to "C=CCO[C@@]1(C)C[C@@H](C)C(=O)[C@H](C)[C@H]2NC(=O)O[C@]2(C)[C@@H](CC)OC(=O)[C@H](C)C(=O)[C@H](C)[C@H]1O[C@@H]1O[C@H](C)C[C@H](N(C)C)[C@H]1O" 0.2

====

System: up to 32 different microorganisms
Assay: in vitro antibacterial activity (MIC), agar dilution on Brain Heart Infusion (BHI) agar with Steers replicator
Assay type: cell-based
Settings: organism code KK; unit assumed
valueType: MIC (µg/mL)
Express it in µg/mL; write the number only.

Previously resolved entries follow.
CCC1OC(=O)C(C)C(=O)C(C)C(OC2OC(C)CC(N(C)C)C2O)C(C)(OCC=Cc2cc3nccnc3cc2[N+](=O)[O-])CC(C)C(=O)C(C)C2NC(=O)OC12C (stereo not shown) ... 0.02
CCC1OC(=O)C(C)C(=O)C(C)C(OC2OC(C)CC(N(C)C)C2O)C(C)(OCC=Cc2ccc3ncc(-c4cccnc4)cc3c2)CC(C)C(=O)C(C)C2NC(=O)OC12C (stereo not shown) ... 0.01
CCC1OC(=O)C(C)C(=O)C(C)C(OC2OC(C)CC(N(C)C)C2O)C(C)(OCC=Cc2ccc3[nH]c4ccccc4c3c2)CC(C)C(=O)C(C)C2NC(=O)OC12C (stereo not shown) ... 0.01
CCC1OC(=O)C(C)C(=O)C(C)C(OC2OC(C)CC(N(C)C)C2O)C(C)(OCC=Cc2ccc3ncc(-c4ccccc4)cc3c2)CC(C)C(=O)C(C)C2NC(=O)OC12C (stereo not shown) ... 0.02
CC[C@H]1OC(=O)[C@H](C)C(=O)[C@H](C)[C@@H](O[C@@H]2O[C@H](C)C[C@H](N(C)C)[C@H]2O)[C@@](C)(OCC=Cc2cnc3ccc(C(=O)O)cc3c2)C[C@@H](C)C(=O)[C@H](C)[C@H]2NC(=O)O[C@@]21C ... 3.1

Now let's try a different one.
Identify measured MIC corresponding to CCC1OC(=O)C(C)C(=O)C(C)C(OC2OC(C)CC(N(C)C)C2O)C(C)(OCC=Cc2cnc3ccc(C(=O)OC)cc3c2)CC(C)C(=O)C(C)C2NC(=O)OC12C (stereo not shown) 0.02
